Target: HIF-2α HIS TAG-PASB Domain (Homo sapiens)
Construct: 100 nM HIF-2α HIS TAG-PASB Domain
Experiment: HIF-2α Scintillation Proximity Assay (SPA)
Type: binding
Settings: read-out: Scintillation Proximity Assay IC50
pIC50: −log10 of the molar value.
metric: pIC50

Take a look at these entries with their results.
molecule="O=Cc1c(S(=O)(=O)C(F)(F)F)ccc(Oc2cc(F)cc(Cl)c2)c1Br [Compound 101]" tested_system="HIF-2α HIS TAG-PASB Domain (Homo sapiens)" result="> 7.30"
molecule="N#Cc1cncc(Oc2ccc(C(F)(F)F)c3c2CC(F)(F)[C@H]3O)c1 [Compound 303]" tested_system="HIF-2α HIS TAG-PASB Domain (Homo sapiens)" result="> 7.30"
molecule="Cc1c(Oc2cc(F)cc(C#N)c2)ccc(S(=O)(=O)C(F)(F)F)c1Br [Compound 141]" tested_system="HIF-2α HIS TAG-PASB Domain (Homo sapiens)" result="6.60 to 7.30"

// next item, pIC50 requested
May I ask what pIC50 has been recorded for C/C(=N\O)c1c(S(=O)(=O)C(F)(F)F)ccc(Oc2cc(F)cc(Cl)c2)c1Br [Compound 106] ?
6.00 to 6.60

----------
// values below are reported pIC50
Target: HIF-2α HIS TAG-PASB Domain (Homo sapiens)
Construct: 100 nM HIF-2α HIS TAG-PASB Domain
Experiment: HIF-2α Scintillation Proximity Assay (SPA)
Assay type: binding
Details: read-out: Scintillation Proximity Assay IC50
pIC50: −log10 of the molar value.

compound="N#Cc1cc(F)cc(Oc2ccc(S(=N)(=O)CF)c3c2CC(F)(F)[C@H]3O)c1 (stereo partly shown)" metric=pIC50 result="6.60 to 7.30"
compound=Cc1cc(C#N)cc(Oc2ccc3c(c2C(F)F)C(=O)C(F)(F)S3(=O)=O)c1 metric=pIC50 result="< 6.00"
compound=O=S(=O)(c1ccc(Oc2ccc(F)c(Cl)c2)c2c1[C@H](O)C(F)(F)C2)C(F)F metric=pIC50 result="> 7.30"
compound="N#Cc1cc(F)cc(Oc2ccc3c(c2C(F)F)C(N)C(F)(F)S3(=O)=O)c1 (stereo not shown) [Compound 387]" metric=pIC50 result="6.60 to 7.30"
compound=O=S(=O)(c1ccc(Oc2cc(F)cc(Cl)c2)c(Br)c1/C=N/O)C(F)(F)F metric=pIC50 result="6.60 to 7.30"

May I ask what pIC50 has been recorded for O=S(=O)(c1ccc(OC2CCOC2)c2c1C(O)C(F)(F)C2)C(F)(F)F (stereo not shown) ?
6.60 to 7.30

May I ask what pIC50 has been recorded for N#Cc1cncc(Oc2ccc(S(=O)(=O)C(F)(F)F)c3c2CCC3O)c1 (stereo not shown) ?
6.00 to 6.60

----------
// values below are reported IC50
Target: HIF-2α HIS TAG-PASB Domain (Homo sapiens, UniProt Q99814)
Construct: 100 nM HIF-2α HIS TAG-PASB Domain
Sequence (Q99814 240-350 limits assumed): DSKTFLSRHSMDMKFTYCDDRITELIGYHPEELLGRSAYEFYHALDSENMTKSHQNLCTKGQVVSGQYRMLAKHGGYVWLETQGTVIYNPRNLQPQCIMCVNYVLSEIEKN
Assay: HIF-2α Scintillation Proximity Assay (SPA)
Format: binding
Details: read-out: Scintillation Proximity Assay IC50

compound="N#Cc1cc(F)cc(Oc2ccc(S(=O)(=O)C(F)(F)F)c3c2CC(F)C3N)c1 (stereo not drawn) [Compound 268]" metric=IC50 result="> 1000 nM"
compound=Cc1cc(C)cc(Oc2ccc(S(=O)(=O)C(F)(F)F)cc2Br)c1 metric=IC50 result="> 1000 nM"
compound=N#Cc1cc(F)cc(Oc2ccc3c(c2C(F)F)[C@H](N)C(F)(F)S3(=O)=O)c1 metric=IC50 result="> 1000 nM"
compound=Cn1cc(-c2ccc(S(=O)(=O)C(F)(F)F)c3c2CC(F)(F)[C@H]3O)cn1 metric=IC50 result="> 1000 nM"
compound=Cc1c(Oc2cc(F)cc(C#N)c2)ccc(S(=O)(=O)C(F)(F)F)c1/C=C/c1nnco1 metric=IC50 result="> 1000 nM"
compound="N#CN=S(=O)(CF)c1ccc(Oc2cc(F)cc(C#N)c2)c2c1[C@H](O)[C@H](F)C2 (stereo partly drawn)" metric=IC50 result="50 to 249 nM"
compound="N#Cc1cc(F)cc(Oc2ccc3c(c2C(F)F)C(N)C(F)(F)S3(=O)=O)c1 (stereo not drawn) [Compound 372]" metric=IC50 result="< 50 nM"
compound="CS(=O)(=O)CCCOc1ccc(S(=O)(=O)C(F)(F)F)c2c1CC(F)(F)C2O (stereo not drawn)" metric=IC50 result="> 1000 nM"

May I ask what IC50 has been recorded for O=S(=O)(c1ccc(OCC2CC2(F)F)c2c1[C@H](O)C(F)(F)C2)C(F)(F)F (stereo partly drawn) ?
< 50 nM

May I ask what IC50 has been recorded for CC(C)(O)COc1ccc(S(=O)(=O)C(F)(F)F)c2c1CC(F)(F)[C@H]2O ?
250 to 1000 nM

May I ask what IC50 has been recorded for O=S(=O)(c1ccc(OC2CC3(COC3)C2)c2c1[C@H](O)C(F)(F)C2)C(F)(F)F ?
50 to 249 nM
